tested on: ABUTH; assay: Post-emergence action against ABUTH; type: in vivo, Abutilon theophrasti; conditions: post-emergence, dosage 80 g/ha, visual assessment about 3 weeks after treatment vs untreated controls
Property: Post-emergence action against ABUTH (herbicidal action in percent); scope: individual compounds
Write the value in % as a bare number.

Here is how some compounds turned out for Post-emergence action against ABUTH (herbicidal action in percent).
CHEMICAL SMILES	TEST SYSTEM	MEASURED VALUE
CCCC(=O)c1c(C(F)(F)F)ccc(C(=O)Nc2nnnn2CC)c1C	ABUTH	100
CCCn1nnnc1NC(=O)c1ccc(C(F)F)c(C(=O)C2CC2)c1Cl	ABUTH	100
Cn1nnnc1NC(=O)c1ccc(C(F)(F)F)c(C(=O)C2CCCCC2)c1Cl	ABUTH	90
CCn1nnnc1NC(=O)c1ccc(S(C)(=O)=O)c(C(C)=O)c1Cl	ABUTH	100
CCCn1nnnc1NC(=O)c1ccc(C)c(C(C)=O)c1C	ABUTH	80

Suppose we examine the compound CCCn1nnnc1NC(=O)c1ccc(S(C)(=O)=O)c(C(=O)C2CC2)c1Cl ; what Post-emergence action against ABUTH (herbicidal action in percent) value has been reported? 90

Suppose we examine the compound CCCn1nnnc1NC(=O)c1ccc(C(F)(F)F)c(C(=O)C(F)F)c1Cl ; what Post-emergence action against ABUTH (herbicidal action in percent) value has been reported? 80

Suppose we examine the compound CCCn1nnnc1NC(=O)c1ccc(I)c(C(C)=O)c1Cl ; what Post-emergence action against ABUTH (herbicidal action in percent) value has been reported? 100

Suppose we examine the compound CCCn1nnnc1NC(=O)c1ccc(C(F)(F)F)c(C(=O)c2cc(F)cc(F)c2)c1Cl ; what Post-emergence action against ABUTH (herbicidal action in percent) value has been reported? 80

---

System: ABUTH
Experiment: Pre-emergence action against ABUTH
Format: in vivo, Abutilon theophrasti
Details: pre-emergence, dosage 320 g/ha, scored visually after 3 weeks vs untreated controls
Text: Seeds of monocotyledonous and dicotyledonous weed plants and crop plants are laid out in sandy loam soil in wood-fiber pots and covered with soil. […] The damage to the test plants is scored visually after a test period of 3 weeks by comparison with untreated controls (herbicidal activity in percent (%): 100% activity=the plants have died, 0% activity=like control plants).
Property: Pre-emergence action against ABUTH (herbicidal activity); scope: individual compounds
Write the value in % as a bare number.

Here is how some compounds turned out for Pre-emergence action against ABUTH (herbicidal activity).
CHEMICAL SMILES	MEASURED VALUE
CCCn1nnnc1NC(=O)c1ccc(C)c(C(=O)C2CC2)c1C	80
CCn1nnnc1NC(=O)c1ccc(S(C)(=O)=O)c(C(C)=O)c1Cl	100

Suppose we examine the compound CCn1nnnc1NC(=O)c1ccc(C(F)(F)F)c(C(=O)C2CC2)c1OC ; what Pre-emergence action against ABUTH (herbicidal activity) value has been reported? 100

Suppose we examine the compound CCCn1nnnc1NC(=O)c1ccc(C(F)(F)F)c(C(=O)C2CCCCC2)c1Cl ; what Pre-emergence action against ABUTH (herbicidal activity) value has been reported? 100

Suppose we examine the compound CCn1nnnc1NC(=O)c1ccc(SC)c(C(=O)C2CC2)c1Cl ; what Pre-emergence action against ABUTH (herbicidal activity) value has been reported? 100

---

test system: VERPE; test: Pre-emergence action against VERPE; format: in vivo, Veronica persica; details: Dosage 320 g/ha, pre-emergence
MEASUREMENT NAME: Pre-emergence action against VERPE

Here is how some compounds turned out for Pre-emergence action against VERPE.
COMPOUND	TEST SYSTEM	MEASURED VALUE
CCCn1nnnc1NC(=O)c1ccc(S(C)(=O)=O)c(C(C)=O)c1C [3-7]	VERPE	100%
CCCn1nnnc1NC(=O)c1ccc(C)c(C(=O)CC)c1Cl [3-135]	VERPE	80%
CCn1nnnc1NC(=O)c1ccc(C(F)F)c(C(=O)C2CC2)c1SC [2-67]	VERPE	100%
Cc1c(C(=O)Nc2nnnn2C)ccc(C(F)(F)F)c1C(=O)CCl [1-22]	VERPE	100%
CCC(=O)c1c(C(F)(F)F)ccc(C(=O)Nc2nnnn2CC)c1C [2-15]	VERPE	100%
CCn1nnnc1NC(=O)c1ccc(SC)c(C(C)=O)c1Cl [2-121]	VERPE	100%

Suppose we examine the compound CCn1nnnc1NC(=O)c1ccc(C(F)(F)F)c(C(=O)CCl)c1C [2-22] ; what Pre-emergence action against VERPE value has been reported? 100%

Suppose we examine the compound Cn1nnnc1NC(=O)c1ccc(C(F)(F)F)c(C(=O)CCl)c1Cl [1-145] ; what Pre-emergence action against VERPE value has been reported? 100%

---

test system: MATIN; assay: Pre-emergence action against MATIN; assay type: in vivo, Matricaria inodora; details: Dosage 320 g/ha, pre-emergence
MEASUREMENT NAME: Pre-emergence action against MATIN (%)
Write the value in % as a bare number.

Here is how some compounds turned out for Pre-emergence action against MATIN.
COMPOUND	Pre-emergence action against MATIN / %
CSc1c(C(=O)Nc2nnnn2C)ccc(C(F)(F)F)c1C(=O)C1CCCCC1 [1-286]	90
CCn1nnnc1NC(=O)c1ccc(C(F)F)c(C(C)=O)c1SC [2-65]	90
CCn1nnnc1NC(=O)c1ccc(S(C)(=O)=O)c(C(=O)C2CC2)c1Cl [2-129]	100
CCn1nnnc1NC(=O)c1ccc(C(F)(F)F)c(C(=O)C(C)(C)C)c1Cl [2-143]	100

# ---- query compound ----
Suppose we examine the compound CCn1nnnc1NC(=O)c1ccc(C(F)(F)F)c(C(=O)C2CC2)c1SC [2-60] ; what Pre-emergence action against MATIN value has been reported? 100

---

tested on: VERPE; assay: Post-emergence action against VERPE; assay type: in vivo, Veronica persica; settings: dosage 80 g/ha
MEASUREMENT NAME: Post-emergence action against VERPE
Answer using only a numeral; do not append any unit.

Here is how some compounds turned out for Post-emergence action against VERPE.
COMPOUND	MEASURED VALUE
CCC(=O)c1c(C(F)(F)F)ccc(C(=O)Nc2nnnn2CC)c1C [2-15]	90
CCCn1nnnc1NC(=O)c1ccc(S(C)(=O)=O)c(C(=O)C2CC2)c1Cl [3-129]	100
CSc1c(C(=O)Nc2nnnn2C)ccc(C(F)(F)F)c1C(=O)C1CCC1 [1-284]	90
CCn1nnnc1NC(=O)c1ccc(S(C)(=O)=O)c(C(=O)C2CC2)c1Cl [2-129]	100
CCCn1nnnc1NC(=O)c1ccc(S(C)(=O)=O)c(C(=O)C2CC2)c1C [3-9]	100

Suppose we examine the compound CCn1nnnc1NC(=O)c1ccc(S(C)(=O)=O)c(C(C)=O)c1C [2-7] ; what Post-emergence action against VERPE value has been reported? 100

Suppose we examine the compound Cn1nnnc1NC(=O)c1ccc(C(F)(F)F)c(C(=O)CCl)c1Cl [1-145] ; what Post-emergence action against VERPE value has been reported? 100

Suppose we examine the compound CCn1nnnc1NC(=O)c1ccc(C(F)(F)F)c(C(C)=O)c1OC [2-48] ; what Post-emergence action against VERPE value has been reported? 80

Suppose we examine the compound CCn1nnnc1NC(=O)c1ccc(S(C)(=O)=O)c(C(=O)C2CC2)c1C [2-9] ; what Post-emergence action against VERPE value has been reported? 100

Suppose we examine the compound CCCn1nnnc1NC(=O)c1ccc(C(F)(F)F)c(C(=O)C2CC2)c1C [3-18] ; what Post-emergence action against VERPE value has been reported? 80

Suppose we examine the compound CCn1nnnc1NC(=O)c1ccc(Cl)c(C(C)=O)c1Cl [2-114] ; what Post-emergence action against VERPE value has been reported? 80

Suppose we examine the compound Cn1nnnc1NC(=O)c1ccc(Cl)c(C(=O)C2CCCC2)c1Cl [1-281] ; what Post-emergence action against VERPE value has been reported? 80

Suppose we examine the compound CCn1nnnc1NC(=O)c1ccc(C(F)F)c(C(=O)C2CC2)c1Cl [2-168] ; what Post-emergence action against VERPE value has been reported? 80

Suppose we examine the compound CCn1nnnc1NC(=O)c1ccc(C(F)(F)F)c(C(=O)C2CC2)c1Cl [2-141] ; what Post-emergence action against VERPE value has been reported? 80

---

system: VERPE; experiment: Post-emergence action against VERPE; format: in vivo, Veronica persica; settings: dosage 80 g/ha
MEASUREMENT NAME: Post-emergence action against VERPE
Answer using only a numeral; do not append any unit.

Here is how some compounds turned out for Post-emergence action against VERPE.
COMPOUND	MEASURED VALUE
CCn1nnnc1NC(=O)c1ccc(Cl)c(C(=O)C2CC2)c1Cl [2-116]	90
CCn1nnnc1NC(=O)c1ccc(C(F)(F)F)c(C(C)=O)c1C [2-14]	80
CCCn1nnnc1NC(=O)c1ccc(C(F)(F)F)c(C(=O)C2CC2)c1Br [3-197]	80
CCCn1nnnc1NC(=O)c1ccc(C(F)(F)F)c(C(=O)C2CC2)c1Cl [3-141]	100
CCCn1nnnc1NC(=O)c1ccc(C(F)(F)F)c(C(C)=O)c1OC [3-48]	80
Cc1c(C(=O)Nc2nnnn2C)ccc(C(F)(F)F)c1C(=O)CCl [1-22]	80

Suppose we examine the compound CCn1nnnc1NC(=O)c1ccc(C(F)F)c(C(=O)C2CC2)c1SC [2-67] ; what Post-emergence action against VERPE value has been reported? 90

Suppose we examine the compound CCCn1nnnc1NC(=O)c1ccc(C(F)(F)F)c(C(C)=O)c1Cl [3-137] ; what Post-emergence action against VERPE value has been reported? 90

Suppose we examine the compound CCn1nnnc1NC(=O)c1ccc(SC)c(C(=O)C2CC2)c1Cl [2-123] ; what Post-emergence action against VERPE value has been reported? 100

Suppose we examine the compound CCn1nnnc1NC(=O)c1ccc(C(F)(F)F)c(C(=O)CCl)c1C [2-22] ; what Post-emergence action against VERPE value has been reported? 80

Every entry's value here was drawn from patent US11051515B2.
